Tested on: 922993-354-T-J3-PDC complex spheroids, viability;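 note: spheroids exposed to compounds for seven days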
Experiment: Anticancer human tumor 922993-354-T-J3-PDC patient-derived endometrial carcinoma cell line growth inhibition [GQUAD]
Settings: second compound 0.1 µM; first compound 0.00999 µM; active compounds read low
Rule for this label: condition met means viability, T/C is less than 40%; condition not met means viability, T/C is at least 40%.

// known answers, use as guide
# MOLECULE, ASSIGNED CATEGORY
measured = [
    ("CC[C@@]1(O)C(=O)OCc2c1cc1n(c2=O)Cc2cc3c(CN(C)C)c(O)ccc3nc2-1 + CN(C)c1ccc(Nc2c3ccc(NC(=O)CCN4CCCC4)cc3nc3cc(NC(=O)CCN4CCCC4)ccc23)cc1", "condition not met"),
    ("Cn1ncnc1[C@H]1c2n[nH]c(=O)c3cc(F)cc(c23)N[C@@H]1c1ccc(F)cc1 + Cc1cnc(CNC(=O)c2c(=O)c3ccc(N4CCCN(C)CC4)nc3n3c2sc2ccccc23)cn1", "condition not met"),
    ("Cn1ncnc1[C@H]1c2n[nH]c(=O)c3cc(F)cc(c23)N[C@@H]1c1ccc(F)cc1 + CN(C)c1ccc(Nc2c3ccc(NC(=O)CCN4CCCC4)cc3nc3cc(NC(=O)CCN4CCCC4)ccc23)cc1", "condition not met"),
    ("Cc1[nH]c2ccccc2c1CCNCc1ccc(/C=C/C(=O)NO)cc1 + CN(C)c1ccc(Nc2c3ccc(NC(=O)CCN4CCCC4)cc3nc3cc(NC(=O)CCN4CCCC4)ccc23)cc1", "condition not met"),
    ("CC[C@@]1(O)C(=O)OCc2c1cc1n(c2=O)Cc2cc3c(CN(C)C)c(O)ccc3nc2-1 + Cc1[nH]c2ccc(F)cc2c1-c1nc2c3cccnc3c3ncccc3c2[nH]1", "condition not met"),
]

Problem: Does Cc1[nH]c2ccccc2c1CCNCc1ccc(/C=C/C(=O)NO)cc1 + Cc1[nH]c2ccc(F)cc2c1-c1nc2c3cccnc3c3ncccc3c2[nH]1 have viability, T/C strictly under 40%?
Result: condition not met

Problem: Does CCc1c2c(nc3ccc(O)cc13)-c1cc3c(c(=O)n1C2)COC(=O)[C@]3(O)CC + Cc1cnc(CNC(=O)c2c(=O)c3ccc(N4CCCN(C)CC4)nc3n3c2sc2ccccc23)cn1 have viability, T/C strictly under 40%?
Result: condition met

Problem: Does CCc1c2c(nc3ccc(O)cc13)-c1cc3c(c(=O)n1C2)COC(=O)[C@]3(O)CC + Cc1[nH]c2ccc(F)cc2c1-c1nc2c3cccnc3c3ncccc3c2[nH]1 have viability, T/C strictly under 40%?
Result: condition not met

Problem: Does CCc1c2c(nc3ccc(O)cc13)-c1cc3c(c(=O)n1C2)COC(=O)[C@]3(O)CC + CN(C)c1ccc(Nc2c3ccc(NC(=O)CCN4CCCC4)cc3nc3cc(NC(=O)CCN4CCCC4)ccc23)cc1 have viability, T/C strictly under 40%?
Result: condition met
